Where do the numbers come from? From PubChem BioAssay (NCATS).

Test: qHTS to identify inhibitors of the type 1 interferon - major histocompatibility complex class I in skeletal muscle: primary screen against the NCATS Mechanism Interrogation Plate v5.0 (MIPE) Libary (AID 1347411); further: nearly all actives have a fitted effect of over 65% in size
Conditions: iHSKM cells + IFN-b, HiBiT-tagged MHC-I luminescence, 24 h; series mostly up to 45.8 µM
Records with an inconclusive call do not appear. The source made the active and inactive calls. The call rests on the fitted dose curve; in most records, active means well fitted inhibition curve with a large enough effect; inconclusive means small, poorly fitted or top-dose-only effect; inactive means no such curve, though single readings can be large or run the other way.
Just give me one of these, please: active, inactive

Consider the following illustrative entries.
[in] Test call for this compound, please: "O=C(Nc1ccc2c(c1)CCN(Cc1ncn[nH]1)C2)c1ccccc1-c1ccc(C(F)(F)F)cc1"
[out] inactive

[in] What did the test return for "C=CCc1cccc(/C=N/NC(=O)CN2CCN(Cc3ccccc3)CC2)c1O" ?
[out] inactive

[in] Per the assay record, what outcome was assigned to "CCNC(=O)[C@H]1O[C@@H](n2cnc3c(N)nc(NCCc4ccc(CCC(=O)O)cc4)nc32)[C@H](O)[C@@H]1O" ?
[out] inactive

[in] Which outcome was entered for the compound "Oc1cc(O)cc(/C=C/c2ccc(O)c(O)c2)c1" in this test?
[out] inactive

[in] What is the recorded call for this compound in the test? "O=C1NC(=O)/C(=C/c2ccc3nccnc3c2)S1"
[out] inactive

Next:
[in] Name the outcome recorded for "CCOC(=O)N1CCN(/[N+]([O-])=N/Oc2ccc([N+](=O)[O-])cc2[N+](=O)[O-])CC1" in the assay.
[out] active

[in] Each compound tested received a call. Report the one for "COc1cc(SC)ccc1C(=O)N1CCC(Cc2ccccc2)CC1" .
[out] inactive

[in] Dear all, I need the recorded test outcome for "CC[C@H]1OC(=O)[C@H](C)[C@@H](O[C@H]2C[C@@](C)(OC)[C@@H](O)[C@H](C)O2)[C@H](C)[C@@H](O[C@@H]2O[C@H](C)C[C@H](N(C)C)[C@H]2O)[C@](C)(O)C[C@@H](C)C(=O)[C@H](C)[C@@H](O)[C@]1(C)O" , thank you.
[out] inactive

[in] Could you check what this test reported for "O=C1NC(=O)/C(=C/c2ccc(-c3ccc(F)cc3O)o2)S1" ?
[out] inactive

[in] Given "CC1(C)[C@@H](O)CC[C@]2(C)[C@H]3C(=O)C=C4[C@@H]5C[C@@](C)(C(=O)O)CC[C@]5(C)CC[C@@]4(C)[C@]3(C)CC[C@@H]12" , state the outcome it received in this test.
[out] inactive

[in] For C[N+]1(C)[C@@H]2CC(OC(=O)[C@H](CO)c3ccccc3)C[C@H]1[C@@H]1O[C@@H]12 (stereo partly specified) , what call appears in the results of this test?
[out] inactive
